molecular target: human ether-à-go-go-related gene (hERG) potassium channel (human); assay: primary screen, population patch clamp on CHO cells stably expressing hERG; higher = less effect of the substance
Out of some 310,000 compounds screened, about 2,200 (0.71%) showed an effect of 50% or more. Effects have a minus sign here. The entries come from a sample that favours strong results as a whole.
Measurement label: hERG current change (%, negative = inhibition) at 1uM (%)

- Compound: "CN1C(=O)C(=Cc2ccccc2OS(=O)(=O)c2ccccc2)C(=O)N(C)C1=O"
  Target system: "human ether-à-go-go-related gene (hERG) potassium channel (human)"
  Measured result: 9.02
- Compound: "COc1cccc(Nc2cc(C)nc3ccccc23)c1"
  Target system: "human ether-à-go-go-related gene (hERG) potassium channel (human)"
  Measured result: -65.2
- Compound: "Fc1ccc(N2Cc3ccsc3C=N2)cc1"
  Target system: "human ether-à-go-go-related gene (hERG) potassium channel (human)"
  Measured result: 9.09
- Compound: "CC1CCC(NC(=O)CN2CCCN(Cc3ccc(F)cc3Cl)C2=O)CC1 (stereo not drawn)"
  Target system: "human ether-à-go-go-related gene (hERG) potassium channel (human)"
  Measured result: 8.34
- Compound: "COc1ccc(CCc2nc(-c3cccs3)no2)cc1"
  Target system: "human ether-à-go-go-related gene (hERG) potassium channel (human)"
  Measured result: 5.28
- Compound: "Cc1c(C(=O)O)c(-c2ccccc2)nn1-c1ccccc1"
  Target system: "human ether-à-go-go-related gene (hERG) potassium channel (human)"
  Measured result: 10.8

---

Measured hERG current change (%, negative = inhibition) at 1uM accompanies every entry in the list below.
Target: human ether-à-go-go-related gene (hERG) potassium channel (human, UniProt Q12809)
Sequence (Q12809 whole entry, looked up): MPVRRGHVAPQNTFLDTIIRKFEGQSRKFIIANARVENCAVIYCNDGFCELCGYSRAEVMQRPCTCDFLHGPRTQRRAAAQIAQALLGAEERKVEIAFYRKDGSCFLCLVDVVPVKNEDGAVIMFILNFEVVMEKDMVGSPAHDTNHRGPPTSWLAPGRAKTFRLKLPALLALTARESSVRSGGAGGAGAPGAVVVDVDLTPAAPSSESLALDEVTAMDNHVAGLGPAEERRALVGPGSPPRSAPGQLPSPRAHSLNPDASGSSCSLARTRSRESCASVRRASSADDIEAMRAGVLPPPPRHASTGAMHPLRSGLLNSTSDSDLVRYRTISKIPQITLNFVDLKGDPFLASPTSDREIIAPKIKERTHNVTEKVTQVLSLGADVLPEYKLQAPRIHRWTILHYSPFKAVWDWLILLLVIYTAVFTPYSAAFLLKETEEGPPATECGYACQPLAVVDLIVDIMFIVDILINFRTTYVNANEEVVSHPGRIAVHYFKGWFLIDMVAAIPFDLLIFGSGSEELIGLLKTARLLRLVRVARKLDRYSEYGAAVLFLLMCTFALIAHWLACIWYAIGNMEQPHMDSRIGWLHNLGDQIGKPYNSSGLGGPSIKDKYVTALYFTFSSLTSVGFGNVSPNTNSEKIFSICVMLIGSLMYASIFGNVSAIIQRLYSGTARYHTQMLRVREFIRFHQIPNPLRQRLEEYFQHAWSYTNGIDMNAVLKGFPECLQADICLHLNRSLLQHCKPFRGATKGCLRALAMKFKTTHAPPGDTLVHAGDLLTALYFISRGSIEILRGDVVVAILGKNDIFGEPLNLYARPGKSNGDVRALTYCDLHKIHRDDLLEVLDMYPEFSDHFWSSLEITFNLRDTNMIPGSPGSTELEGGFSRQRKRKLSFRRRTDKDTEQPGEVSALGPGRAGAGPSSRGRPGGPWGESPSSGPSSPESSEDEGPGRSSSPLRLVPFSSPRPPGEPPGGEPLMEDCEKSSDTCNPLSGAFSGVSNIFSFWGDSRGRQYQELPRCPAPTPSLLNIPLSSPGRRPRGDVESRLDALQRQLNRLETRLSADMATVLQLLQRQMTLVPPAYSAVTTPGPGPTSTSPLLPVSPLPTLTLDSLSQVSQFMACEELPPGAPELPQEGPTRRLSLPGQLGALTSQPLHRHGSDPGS
Assay: primary screen, population patch clamp on CHO cells stably expressing hERG; higher = less effect of the substance
Source text: Briefly, Chinese hamster ovary (CHO) cells stably expressing the hERG channel were dislodged from tissue culture flasks and dispensed into PPC plates. […] Small molecule effects on hERG current density were quantified by […].
Hit rate of the full screen: of about 310,000 compounds, about 2,200 (0.71%) showed an effect of 50% or more. The effect is printed as a negative number. Many of the other results were omitted from the sample, so strong results are more common in it than they were.
Measurement label: hERG current change (%, negative = inhibition) at 1uM (%)

- Compound: "CCOC(=O)c1cc2c(=O)n3ccccc3nc2n(CCCOC)c1=NC(C)=O"
  Measured result: -15.6
- Compound: "CCOCCCn1c(=N)c(S(=O)(=O)c2ccccc2)cc2c(=O)n3cc(C)ccc3nc21"
  Measured result: 11.3
- Compound: "OCCC1CN(Cc2cccc3nccnc23)CCN1C1CCCC1 (centres unmarked)"
  Measured result: 3.17
- Compound: "Cc1cccc(CN2CCN(Cc3ccc(-n4cccn4)cc3)CC2CCO)n1 (centres unmarked)"
  Measured result: -1.6
- Compound: "Cc1ccc(CN2CCN(Cc3ccc(-n4cccn4)cc3C)CC2CCO)cc1 (centres unmarked)"
  Measured result: -83.8

---

Measured hERG current change (%, negative = inhibition) at 1uM accompanies every entry in the list below.
target: human ether-à-go-go-related gene (hERG) potassium channel (human, UniProt Q12809); experiment: primary screen, population patch clamp on CHO cells stably expressing hERG; higher = less effect of the substance
Among all 310,000 compounds or so, about 2,200 (0.71%) showed an effect of 50% or more. Effects have a minus sign here. The full list was thinned out, with strong results kept by preference.
Measurement label: hERG current change (%, negative = inhibition) at 1uM (%)

- Compound: "CCN(CC)S(=O)(=O)c1cc(C(=O)Nc2cccnc2)ccc1Cl"
  Measured result: -40.3
- Compound: "CS(=O)(=O)N(CC(=O)N1CCN(Cc2ccccc2)CC1)c1cccc([N+](=O)[O-])c1"
  Measured result: -73.1
- Compound: "O=C(Cn1nc(C(F)(F)F)cc1C1CC1)Nc1ccccc1F"
  Measured result: 16.1
- Compound: "Cc1cc(C)c[n+](CC(=O)c2ccc(C)c([N+](=O)[O-])c2)c1.[Br-]"
  Measured result: 4.61
- Compound: "CS(=O)(=O)N(CC(=O)N1CCCCCC1)c1cccc([N+](=O)[O-])c1"
  Measured result: 2.29
- Compound: "O=[N+]([O-])c1ccc(C(O)CN2CCN(C/C=C/c3ccccc3)CC2)cc1 (stereo not shown)"
  Measured result: -85.5
- Compound: "CCn1ccnc1CNC(=O)CC1C(=O)NCCN1Cc1ccc(F)cc1Cl (stereo not shown)"
  Measured result: 13.5
- Compound: "O=C1C=C(NCC2CCCO2)C2(CCCCC2)O1 (stereo not shown)"
  Measured result: 15.6
- Compound: "CS(=O)(=O)N(CC(=O)N1CCN(Cc2ccccc2)CC1)c1cccc(Cl)c1"
  Measured result: -23
- Compound: "OC(CN1CCN(Cc2ccccc2)CC1)c1ccccc1 (stereo not shown)"
  Measured result: 0.933
